- experimentalTarget: calpain I from porcine erythrocyte (Sus scrofa, UniProt P35750)
- Sequence (P35750 1-714): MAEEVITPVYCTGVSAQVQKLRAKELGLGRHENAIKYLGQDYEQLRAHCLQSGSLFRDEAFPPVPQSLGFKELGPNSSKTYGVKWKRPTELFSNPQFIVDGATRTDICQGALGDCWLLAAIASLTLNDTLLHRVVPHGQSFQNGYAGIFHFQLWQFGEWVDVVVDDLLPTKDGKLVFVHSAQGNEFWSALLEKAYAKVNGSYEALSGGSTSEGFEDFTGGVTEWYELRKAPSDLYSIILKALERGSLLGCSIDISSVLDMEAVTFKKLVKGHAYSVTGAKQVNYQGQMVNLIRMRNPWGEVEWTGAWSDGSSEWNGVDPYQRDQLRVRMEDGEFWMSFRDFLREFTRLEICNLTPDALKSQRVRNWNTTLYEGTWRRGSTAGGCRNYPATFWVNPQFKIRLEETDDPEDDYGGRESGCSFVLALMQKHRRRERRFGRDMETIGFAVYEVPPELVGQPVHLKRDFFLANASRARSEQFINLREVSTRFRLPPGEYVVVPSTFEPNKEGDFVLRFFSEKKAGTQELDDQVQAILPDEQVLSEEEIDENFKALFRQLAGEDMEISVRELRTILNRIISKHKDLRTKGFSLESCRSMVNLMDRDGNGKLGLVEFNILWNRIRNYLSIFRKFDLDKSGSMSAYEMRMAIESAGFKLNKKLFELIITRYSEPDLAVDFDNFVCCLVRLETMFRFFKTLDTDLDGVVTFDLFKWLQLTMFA
- Sequence (P04574 1-266 partner): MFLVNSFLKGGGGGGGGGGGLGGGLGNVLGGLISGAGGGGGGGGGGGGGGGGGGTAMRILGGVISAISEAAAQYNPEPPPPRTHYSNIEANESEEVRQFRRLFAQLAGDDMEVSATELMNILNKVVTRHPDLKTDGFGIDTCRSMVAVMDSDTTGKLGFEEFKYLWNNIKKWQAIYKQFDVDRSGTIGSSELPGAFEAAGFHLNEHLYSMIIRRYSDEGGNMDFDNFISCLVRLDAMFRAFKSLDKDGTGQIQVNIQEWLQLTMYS
pIC50: −log10 of the molar value.
valueType: pIC50

| molecularString | valueType | numericValue |
| --- | --- | --- |
| CC[C@H](C)[C@@H]1NC(=O)c2ccccc2/C1=C/C(=O)N[C@H](C(=O)N[C@@H](Cc1ccccc1)C(=O)OC)C(C)C | pIC50 | 6.20 |
| CC[C@H](C)[C@@H]1NC(=O)c2ccccc2/C1=C/C(=O)Nc1ccccc1-c1ccccc1NC(=O)[C@@H](N)C(C)C | pIC50 | 4.77 |
| CC[C@H](C)[C@@H]1NC(=O)c2ccccc2/C1=C/C(=O)Nc1ccccc1-c1ccccc1N | pIC50 | 7.07 |
| CC[C@H](C)[C@H](N)C(=O)Nc1ccccc1-c1ccccc1NC(=O)/C=C1/c2ccccc2C(=O)N[C@H]1[C@@H](C)CC | pIC50 | 4.30 |
| CC[C@H](C)[C@@H]1NC(=O)c2ccccc2/C1=C/C(=O)Nc1ccccc1-c1ccccc1NC(=O)[C@H](Cc1ccccc1)NC(=O)OCC1c2ccccc2-c2ccccc21 | pIC50 | 4.32 |
| CC[C@H](C)[C@@H]1NC(=S)c2ccccc2/C1=C/C(=O)OC | pIC50 | 4.42 |
| CC[C@H](C)[C@@H]1NC(=O)c2ccccc2/C1=C/C(=O)Nc1cccc(C(C)=O)c1 | pIC50 | 3.89 |

====

The compounds listed here are annotated with their melting point.

| molecularString | melting point |
| --- | --- |
| CC[C@H](C)[C@@H]1NC(=O)c2ccccc2/C1=C/C(=O)Nc1ccccc1-c1ccccc1NC(=O)/C=C1/c2ccccc2C(=O)N[C@H]1[C@@H](C)CC | 177 to 180 °C |
| CC[C@H](C)[C@H](NC(=O)/C=C1/c2ccccc2C(=O)N[C@H]1[C@@H](C)CC)C(=O)N[C@H](C(=O)N[C@H](C(=O)OC)[C@@H](C)CC)[C@@H](C)CC | 151 to 154 °C |
| CCCCOC(=O)/C=C1/c2ccccc2C(=O)N[C@H]1[C@@H](C)CC | 110 to 112 °C |
| CC[C@H](C)[C@@H]1NC(=O)c2ccccc2/C1=C/C(=O)OCc1ccc(COC(=O)/C=C2/c3ccccc3C(=O)N[C@H]2[C@@H](C)CC)cc1 | 213 to 215 °C |

====

The compounds listed here are annotated with their melting point.

| molecularString | melting point |
| --- | --- |
| CC[C@H](C)[C@@H]1NC(=O)c2ccccc2/C1=C/C(=O)N[C@H](C(=O)N[C@@H](Cc1ccccc1)C(=O)OC)C(C)C | 174 to 176 °C |
| CC[C@H](C)[C@@H]1NC(=O)c2ccccc2/C1=C/C(=O)Nc1ccccc1-c1ccccc1NC(=O)[C@@H](N)C(C)C | 110 to 113 °C |
| CC[C@H](C)[C@H](NC(=O)OCC1c2ccccc2-c2ccccc21)C(=O)Nc1ccccc1-c1ccccc1NC(=O)/C=C1/c2ccccc2C(=O)N[C@H]1[C@@H](C)CC | 116 to 120 °C |
| CC[C@H](C)[C@@H]1NC(=S)c2ccccc2/C1=C/C(=O)OC | 50 to 53 °C |
| CC[C@H](C)[C@@H]1NC(=O)c2ccccc2/C1=C/C(=O)Nc1ccccc1-c1ccccc1NC(=O)[C@H](Cc1ccccc1)NC(=O)OCC1c2ccccc2-c2ccccc21 | 108 to 110 °C |

Source of measurements: patent US7932266B2
